Taken from patent US20210147523A1.

experimental_system: T1, human SPNS2 (human, UniProt Q8IVW8 1-549)
T1 sequence: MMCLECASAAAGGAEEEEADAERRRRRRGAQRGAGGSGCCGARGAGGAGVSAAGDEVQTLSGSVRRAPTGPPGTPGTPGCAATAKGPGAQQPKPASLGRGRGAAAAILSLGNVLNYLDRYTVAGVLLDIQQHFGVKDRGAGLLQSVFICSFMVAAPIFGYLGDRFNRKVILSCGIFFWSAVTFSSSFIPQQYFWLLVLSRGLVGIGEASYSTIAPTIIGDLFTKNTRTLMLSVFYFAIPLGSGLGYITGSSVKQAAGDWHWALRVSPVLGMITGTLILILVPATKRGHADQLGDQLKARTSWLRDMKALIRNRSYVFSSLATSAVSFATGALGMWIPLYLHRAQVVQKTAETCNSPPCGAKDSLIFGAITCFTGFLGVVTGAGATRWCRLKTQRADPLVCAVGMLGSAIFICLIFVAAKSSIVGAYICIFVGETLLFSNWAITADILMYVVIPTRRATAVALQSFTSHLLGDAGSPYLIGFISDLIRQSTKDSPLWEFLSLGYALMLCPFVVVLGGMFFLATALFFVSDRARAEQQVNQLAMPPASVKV
assay_protocol: cell-based or functional assay
measured_quantity: pIC50, S1P transport inhibition (LC-MS/MS of S1P)

binder: 18-0211B (antibody, IgG2b, V domains shown) VH: AVQLVGSGGGLVQPGRSMKLSCEASGFTFSNHYMAWVRQAPTRGLEWVATISTGGGNTYYRDSVKGRFTISRDNTRSTLSLQMDSLRSEDTATYYCTRQDYTNYMGGFAYWGQGTLVTVSS VL: QFVLTQPNSVSTNLGSTVKLSCTRSIGNIGNNYVNWYKQYEGRSPTTLIYRDDERPDGVPDRFSGSIDRSSNSALLTINSVQTEDGADYFCQSFSSGIFIFGGGTTLTVL
value_reported: 7.9 pIC50 (M)

[in] What value of measured pIC50, S1P transport inhibition (LC-MS/MS of S1P) is listed for 83-1110B (antibody, IgG2b, V domains shown) VH: EVQLQQSGPEFVRPGTSVKFSCKVSGGSITSYFIHFVKQRPGQGLEWIGKIDPEDDSTKYGEKFKNKATLTADTSSNTAFLKLSSLTSEDTAIYFCTTLTGLDYWGQGVMVTVSS VL: DIQMTQSPPVLSAAVGDRVTLSCKASRSLNKNLDWYQQKHGETPKLLIYHTHNLQTGIPSRFSGSGSDTDYTLTISSLQTEDVATYYCYQYHSGWTFGGGTRLELRR ?
[out] 7.9 pIC50 (M)
